# Tested on: SW-620
# assay.notes: NCI tumour cell line growth inhibition, 48 h
Calls of active or inactive are those of the source. No stated cut-off is given here; in the data, active = GI50 up to about 1.1 µM and inactive = higher.
Below: a set of entries, each annotated with reported GI50.

Examples with answers:
Qu. Dear colleague, I am looking for the recorded GI50 of the following molecule: `O=c1/c(=C/c2ccc(-c3ccc(Cl)cc3Cl)o2)sc2n1[C@@H](c1ccc(Cl)cc1)C=C(c1cc(F)c(Cl)cc1Cl)N=2`
Ans. 33.6 µM (inactive)

Qu. Do the same for `O=[N+]([O-])c1nccn1COCCO` please
Ans. > 100 µM (inactive)

Others:
Qu. Dear colleague, I am looking for the recorded GI50 of the following molecule: `COc1cccc(NC(=O)CC(=O)NNCC(=O)Nc2nnc(-c3ccc(N(CCC#N)S(=O)(=O)c4ccccc4)cc3)s2)c1`
Ans. > 100 µM (inactive)

Qu. Do the same for CCN(CC)C(=S)SC [METHYLDIETHYL CARBAMODITHIOATE] please
Ans. > 100 µM (inactive)

Qu. Do the same for `CN(O)C(=S)c1ccccc1` please
Ans. 1.25 µM (inactive)

Qu. Do the same for `O=C(COc1ccc(OCC(=O)N2C(=O)CC(=O)N(c3ccccc3)C2=S)cc1)N1C(=O)CC(=O)N(c2ccccc2)C1=S` please
Ans. 72.1 µM (inactive)

Qu. Do the same for `O=C(CO)CC(=O)C(=O)Nc1cccc(C(F)(F)F)c1` please
Ans. > 100 µM (inactive)

Qu. Do the same for `C=CCc1cccc2cc(C(=O)Nc3nc(C45CC6CC(CC(C6)C4)C5)cs3)c(=O)oc12` please
Ans. 31.7 µM (inactive)

Qu. Do the same for COc1ccc(C(O)C(c2ccc(OCc3ccccc3)cc2)c2ccc(OCc3ccccc3)cc2)cc1 (stereo unspecified) please
Ans. > 100 µM (inactive)

Qu. Do the same for COc1ccc(C(C2=C(C)C(=O)c3ccccc3C2=O)c2ccc(C(C)C)cc(=O)c2O)cc1 (stereo unspecified) please
Ans. 6.1 µM (inactive)

Qu. Do the same for COc1cc2cc(C(=O)N3CC(CCl)c4ccc(NCCN)cc43)[nH]c2c(OC)c1OC (stereo unspecified) please
Ans. 0.151 µM (active)

Qu. Do the same for `CC(=O)Nc1ccc(/C=C/[N+](=O)[O-])cc1` please
Ans. 2.64 µM (inactive)

Qu. Do the same for `CCCCC(=O)OC[n+]1ccc2c(C)c3[nH]c4ccccc4c3c(C)c2c1` please
Ans. 0.359 µM (active)

Qu. Do the same for `Cc1cc(Oc2cnc(=O)[nH]c2)cs1` please
Ans. > 100 µM (inactive)

Qu. Do the same for CCOC(=O)C(C)N1C(=O)c2ccccc2S1(=O)=O (stereo unspecified) please
Ans. > 100 µM (inactive)

Qu. Do the same for `OCc1cn(Cc2ccccc2)c2ccccc12` please
Ans. 1.36 µM (inactive)

Qu. Do the same for `COc1ccc2c(C)c(Oc3c(Cl)c(Cl)c(O)c(C#N)c3C#N)oc2c1` please
Ans. > 100 µM (inactive)

Qu. Do the same for O=C1CS(=O)(=O)C(c2cccc(Oc3ccccc3)c2)N1c1ccc(Cl)cc1 (stereo unspecified) please
Ans. 30 µM (inactive)

Qu. Do the same for CCCCCCCCCCCC1NC(N)=NC(CCCO)=C1C(=O)OC (stereo unspecified) please
Ans. 1.61 µM (inactive)

Qu. Do the same for `CC(C)NC(=O)OCc1c(COC(=O)NC(C)C)c(-c2cc[n+](COC(=O)CC(C)(C)C)cc2)n2c1CCC2` please
Ans. > 100 µM (inactive)

Qu. Do the same for `COc1ccccc1N=C(S)Nc1ccccn1` please
Ans. > 100 µM (inactive)

* * *

# System: A549
# assay.notes: NCI tumour cell line growth inhibition, 48 h
Active and inactive are the calls of the source. No stated cut-off is given here; in the data, active = GI50 up to about 1.1 µM and inactive = higher.
Classes to choose from: active, inactive

Solved cases below.
Qu. Fill in: this test's call for `CC(=O)c1ccc(Nc2c3ccccc3nc3occc23)cc1` is ___
Ans. active

Qu. Do the same for CC1(C)C(=O)C(O)=CC2C1=CCC1C2(C)C(=O)CC2(C)C(C(C)(O)C(=O)CC(O)C(C)(C)O)C(O)CC12C (centres undefined) please
Ans. inactive

Qu. Do the same for `Cc1cc(C2(c3cc(C)c(O)c4ncccc34)OC(=O)c3ccccc32)c2cccnc2c1O` please
Ans. active

Kindly consider the entry below.
Qu. Fill in: this test's call for `C=CC(C)(C)N[C@@H](C(=O)N1CCC[C@H]1c1nc(-c2nc(C(=O)OCC=C(C)C)c(C)o2)c(C)o1)C(C)C` is ___
Ans. inactive

* * *

# Test system: RXF 393
# assay.notes: NCI tumour cell line growth inhibition, 48 h
Calls of active or inactive are those of the source. Rule as the data show it: active = GI50 up to about 1.1 µM and inactive = higher.
Classes to choose from: 1 for active, 0 for inactive

Solved cases below.
Qu. Fill in: this test's call for `COc1ccc2oc(=N)c(C(=O)Nc3cccc4ccccc34)cc2c1` is ___
Ans. 0

Qu. Do the same for `N#Cc1ncc(C(Cl)Cl)nc1Cl` please
Ans. 0

Qu. Do the same for `OCc1cn(Cc2ccccc2)c2ccccc12` please
Ans. 1

Others:
Qu. Fill in: this test's call for CC(C)(C)OC(=O)NC(Cc1ccc(OCc2ccccc2)cn1)C(=O)N1CCSCC1 (stereo not given) is ___
Ans. 0

Qu. Do the same for `CN(C)CCc1ccnc2nc(-c3ccc4ccccc4c3)cn12` please
Ans. 0

Qu. Do the same for `CC(=O)Nc1ccc(/C=C/[N+](=O)[O-])cc1` please
Ans. 0

Qu. Do the same for C=C1C(=O)OC2C[C@H](C)C3CC(=O)C(C)=C3CC12 (stereo not given in full) please
Ans. 0

Qu. Do the same for COc1ccc(C2C(C(=O)c3ccccc3)=C(O)C(O)(CC(=O)c3ccccc3)N2c2ccc(OC)cc2)cc1 (stereo not given) please
Ans. 0

Qu. Do the same for `Cc1cn(CC2=NCCN2)c(=O)[nH]c1=O` please
Ans. 0

Qu. Do the same for CC1C2(C)OC(=N)C(C#N)(C(c3cccc([N+](=O)[O-])c3)O2)C1(C#N)C#N (stereo not given) please
Ans. 0

* * *

# System: MOLT-4
# assay.notes: NCI tumour cell line growth inhibition, 48 h
Active and inactive are the calls of the source. Cut-off read from the data, not from the text of the source: active = GI50 up to about 1.1 µM and inactive = higher.
Classes to choose from: active, inactive

Solved cases below.
Qu. Fill in: this test's call for `NNc1nc2ccccc2s1` is ___
Ans. inactive

Qu. Do the same for `CCOC(=O)NC(=O)c1cn(CCOC(=O)NCCCCCCNC(=O)OCCn2cc(C(=O)NC(=O)OCC)c(=O)[nH]c2=O)c(=O)[nH]c1=O` please
Ans. inactive

Qu. Do the same for CCCCCCCCCCCC1NC(N)=NC(CCCO)=C1C(=O)OC (stereo unspecified) please
Ans. inactive

Qu. Do the same for `CC(=O)Nc1ccc2cc(C)c(O)nc2n1` please
Ans. inactive

Others:
Qu. Fill in: this test's call for CCCCCCCCCCCC(=O)N(CCCCCCCCCCC(=O)O)CC(O)C(O)C(OC1OC(CO)C(O)C(O)C1O)C(O)CO (stereo unspecified) is ___
Ans. inactive

Qu. Do the same for CC/C(=C(\c1ccccc1)c1ccc(OCC[N+](C)(C)C)cc1)c1ccccc1 [TAMOXIFEN METHYL IODIDE] please
Ans. inactive

Qu. Do the same for `C=CCN1CN(C2CCCCC2)CSC1=S` please
Ans. active

Qu. Do the same for COC(=O)[C@H](Cc1ccccc1)NC(=O)[C@H](Cc1ccccc1)NC(=O)[C@@H]1CCCN1C(=O)N[C@H]1C2C=CC(C2)C1C(=O)N1CCC[C@H]1C(=O)N[C@@H](C)C(=O)N[C@H](C(=O)OC)C(C)C (stereo partly specified) please
Ans. inactive

Qu. Do the same for CC(C)(C)OC(=O)C#CC[C@H]1CCCC1/C=C/C(O)=C1/C(=O)NC(CCCNC(=O)OC(C)(C)C)C1=O (stereo partly specified) please
Ans. inactive

Qu. Do the same for S=C1SCC2CCCN12 (stereo unspecified) please
Ans. inactive

Qu. Do the same for CCCOC(=O)C1C2CCC(O2)C1C(=O)O (stereo unspecified) please
Ans. inactive

* * *

# Test system: NCI-H460
# assay.notes: NCI tumour cell line growth inhibition, 48 h
Calls of active or inactive are those of the source. Rule as the data show it: active = GI50 up to about 1.1 µM and inactive = higher.
Below: a set of entries, each annotated with reported GI50.

Qu. Dear colleague, I am looking for the recorded GI50 of the following compound: O=C(O)C1CCCN1Cc1ccc2c(c1)OCO2 (stereo not given)
Ans. > 100 µM (inactive)

Qu. Do the same for COC(=O)C1CCC(=O)N1CN(C(C)=O)c1ccccc1Cl (stereo not given) please
Ans. > 100 µM (inactive)

Qu. Do the same for `CCOC(=O)NC(=O)c1cn(CCOC(=O)NCCCCCCNC(=O)OCCn2cc(C(=O)NC(=O)OCC)c(=O)[nH]c2=O)c(=O)[nH]c1=O` please
Ans. > 100 µM (inactive)

Others:
Qu. Dear colleague, I am looking for the recorded GI50 of the following compound: `NC(=O)C(C(N)=O)=C(O)/C(O)=C/C(=O)c1ccccc1`
Ans. > 100 µM (inactive)

Qu. Do the same for `CCCCCCCC/C=C\CCCCCCCCCCCC(=O)O` please
Ans. 7.48 µM (inactive)
